From: patent US9963452B2

Tested on: U118 glioblastoma cell line
method: In-vitro cell survival assay (Alamar blue), U118
Type: cell-based
condition_notes: 24 h; U118, one day after compound addition
pEC50: −log10 of the molar value.

molecule | comparator | pEC50
O=C(c1cccc(Nc2nccc(Nc3ccc4ncsc4c3)n2)c1)N1CCCCCC1 [drawing 421] | = | 4.09
O=C(NCc1ccc(F)cc1)c1cccc(Nc2nccc(Nc3ccc4ncsc4c3)n2)c1 [drawing 423] | = | 4.62
Cc1cccc(C(=O)n2nc(-c3ccco3)nc2NCc2ccccc2)c1 [drawing 431] | < | 4.00
CC(C)(CO)NC(=O)c1cccc(Nc2nccc(Nc3ccc4ncsc4c3)n2)c1 [drawing 408] | = | 4.74
Cc1cc(-c2ccccc2)c2ccc(N)nc2n1 [drawing 480] | < | 4.00
O=C(NCCc1ccccc1)c1cccc(Nc2nccc(Nc3ccc4ncsc4c3)n2)c1 [drawing 418] | = | 4.62
O=C(NNc1nc2ccccc2nc1Cc1ccccc1)c1cccc(Cl)c1 [drawing 366] | < | 4.00
CC1=NNC(=O)/C1=C\c1cn(-c2ccccc2)nc1-c1ccccc1 [drawing 403] | = | 5.15
Cc1cccc(Nc2ccnc(Nc3cccc(C(=O)N4CC=CCC4)c3)n2)c1 [drawing 371] | = | 4.55
O=C(NC[C@@H]1CCCO1)c1cccc(Nc2nccc(Nc3ccc4ncsc4c3)n2)c1 | < | 4.00
CCC(C)(C)NC(=O)c1cccc(Nc2nccc(Nc3ccc4ncsc4c3)n2)c1 [drawing 380] | = | 4.82
Cc1cccc(Nc2nccc(Nc3cccc(C(=O)NCc4ccc(F)cc4)c3)n2)c1 [drawing 379] | = | 4.55
O=C(c1cccc(-c2noc(-c3n[nH]c4c3CCCC4)n2)c1)N1CCCCC1 [drawing 385] | = | 4.08
O=C(NCCc1ccc(F)cc1)c1cccc(Nc2nccc(Nc3ccc4ncsc4c3)n2)c1 [drawing 372] | = | 5.05
Nc1nc(Nc2ccc(C(=O)NCCc3ccncc3)cc2)cc(Nc2ccc3ncsc3c2)n1 [drawing 417] | < | 4.00
Cc1cccc(Nc2nccc(Nc3cccc(C(=O)N(C)CCCN(C)C)c3)n2)c1 [drawing 425] | < | 4.00
Cc1nc2cc(C(=O)N[C@H](c3ccccc3)c3cccnc3)ccc2[nH]1 [drawing 398] | < | 4.00
COc1ccc(NC(=O)CC2=Nc3cccc4cccc(c34)NC2=O)cc1 [drawing 482] | < | 4.00
